Data credit: patent US20220281976A1

- system_tested: T1, human CD33 (human, UniProt P20138 18-364)
- T1 construct: CD33 on human primary dendritic cells, macrophages, monocytes and T cells and on CHO cells expressing recombinant human CD33; also called Siglec-3; hCD33
- test_details: flow cytometry, human primary macrophages;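 note: binding of CD33 antibodies at 10 µg/ml to human primary macrophages, 1 h on ice, detected with PE-labelled secondary antibody by flow cytometry, reported as MFI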
Response field label: string, one of yes (1) (Macrophage MFI strictly below 800) or no (0).

>>> class("C-56 (antibody, V domains shown, human IgG1) VH: EVQLVESGGGLVQPGGSLRLSCAASGFTFSSYWMSWVRQAPGKGLEWVANIKQDGSEKYYVDSVKGRFTISRDNAKNSLYLQMNSLRAEDTAVYYCARDYGSVAGTPFDYWGQGTLVTVSS VL: DIQMTQSPSSLSASVGDRVTITCRASQSISSYLNWYQQKPGKAPKLLIYAASSLQSGVPSRFSGSGSGTDFTLTISSLQPEDFATYYCQQVLHTPLTFGGGTKVEIK")
"no (0)"
>>> class("C-60 (antibody, V domains shown, human IgG1) VH: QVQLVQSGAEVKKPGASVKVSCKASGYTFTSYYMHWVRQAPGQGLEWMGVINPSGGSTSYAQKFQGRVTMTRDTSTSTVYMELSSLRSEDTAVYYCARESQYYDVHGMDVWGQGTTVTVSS VL: DIQLTQSPSSLSASVGDRVTITCRASQSISSYLNWYQQKPGKAPKLLIYAASSLQSGVPSRFSGSGSGTDFTLTISSLQPEDFATYYCQQSVHVPITFGGGTKVEIK")
"yes (1)"
>>> class("C-63 (antibody, V domains shown, human IgG1) VH: QVQLVQSGAEVKKPGSSVKVSCKASGGTFSSYAISWVRQAPGQGLEWMGSIIPIFGTANYAQKFQGRVTITADESTSTAYMELSSLRSEDTAVYYCARDLGGQYYGSHHYWGQGTLVTVSS VL: EIVLTQSPATLSVSPGERATLSCRASQSVGSNLAWYQQKPGQAPRLLIYGASTRATGIPARFSGSGSGTEFTLTISSLQSEDFAVYYCQQYNAWPLTFGGGTKVEIK")
"no (0)"
>>> class("C-12 (antibody, V domains shown, human IgG1) VH: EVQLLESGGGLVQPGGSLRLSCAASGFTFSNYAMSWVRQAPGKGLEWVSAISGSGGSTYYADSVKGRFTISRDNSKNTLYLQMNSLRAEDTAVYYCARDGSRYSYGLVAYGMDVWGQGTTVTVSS VL: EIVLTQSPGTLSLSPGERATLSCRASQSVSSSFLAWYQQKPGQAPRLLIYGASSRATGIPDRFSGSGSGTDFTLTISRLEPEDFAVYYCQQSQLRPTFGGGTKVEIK")
"no (0)"
>>> class("C-42 (antibody, V domains shown, human IgG1) VH: QLQLQESGPGLVKPSETLSLTCTVSGGSISSSSYYWGWIRQPPGKGLEWIGSIYYSGSTYYNPSLKSRVTISVDTSKNQFSLKLSSVTAADTAVYYCAREPIYRRGMDVWGQGTTVTVSS VL: EIVLTQSPATLSLSPGERATLSCRASQSVSSYLAWYQQKPGQAPRLLIYDASNRATGIPARFSGSGSGTDFTLTISSLEPEDFAVYYCQQFSNYPTFGGGTKVEIK")
"yes (1)"
>>> class("C-27 (antibody, V domains shown, human IgG1) VH: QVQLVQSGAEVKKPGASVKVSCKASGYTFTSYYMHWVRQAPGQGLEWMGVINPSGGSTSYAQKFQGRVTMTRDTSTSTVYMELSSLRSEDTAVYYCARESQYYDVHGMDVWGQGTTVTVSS VL: DIQMTQSPSSLSASVGDRVTITCRASQSISSYLNWYQQKPGKAPKLLIYAASSLQSGVPSRFSGSGSGTDFTLTISSLQPEDFATYYCQQHYDIPLTFGGGTKVEIK")
"yes (1)"
>>> class("C-66 (antibody, V domains shown, human IgG1) VH: QLQLQESGPGLVKPSETLSLTCTVSGGSISSSSYYWGWIRQPPGKGLEWIGSIYYSGSTYYNPSLKSRVTISVDTSKNQFSLKLSSVTAADTAVYYCAREVGYPYGMDVWGQGTTVTVSS VL: DIQLTQSPSSLSASVGDRVTITCQASQDISNFLNWYQQKPGKAPKLLIYDASNLETGVPSRFSGSGSGTDFTFTISSLQPEDIATYYCQQYSDLPTFGGGTKVEIK")
"yes (1)"
>>> class("C-13 (antibody, V domains shown, human IgG1) VH: EVQLVESGGGLVQPGGSLRLSCAASGFTFSSYWMSWVRQAPGKGLEWVANIKSDGSEKYYVDSVKGRFTISRDNAKNSLYLQMNSLRAEDTAVYYCARGPSYLASGAFDLWGRGTLVTVSS VL: EIVLTQSPATLSLSPGERATLSCRASQSVSSYLAWYQQKPGQAPRLLIYDASNRATGIPARFSGSGSGTDFTLTISSLEPEDFAVYYCQQAYVVPPRTFGGGTKVEIK")
"no (0)"
>>> class("C-64 (antibody, V domains shown, human IgG1) VH: QVQLVQSGAEVKKPGSSVKVSCKASGGTFSSLAISWVRQAPGQGLEWMGGIIPIFGTANYAQKFQGRVTITADESTSTAYMELSSLRSEDTAVYYCARGTFYSDELFDYWGQGTLVTVSS VL: DIQMTQSPSSVSASVGDRVTITCRASQGISSWLAWYQQKPGKAPKLLIYAASSLQSGVPSRFSGSGSGTDFTLTISSLQPEDFATYYCQQENSYPLTFGGGTKVEIK")
"no (0)"
